- assay_system: HIV-1 Env of TRJO.58 (HIV-1)
- assay_remarks: cell-based or functional assay
metric: neutralization IC50

Item CAP256-VRC26.03 (antibody, V domains shown) VH: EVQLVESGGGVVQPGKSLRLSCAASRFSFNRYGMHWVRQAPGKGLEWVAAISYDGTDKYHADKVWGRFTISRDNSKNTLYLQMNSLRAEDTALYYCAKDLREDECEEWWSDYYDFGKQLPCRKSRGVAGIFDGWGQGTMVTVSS VL: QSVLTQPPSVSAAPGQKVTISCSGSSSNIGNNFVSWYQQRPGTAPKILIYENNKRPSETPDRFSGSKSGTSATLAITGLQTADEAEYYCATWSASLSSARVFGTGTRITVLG has what recorded neutralization IC50?
> 50 µg/mL

One more binder: CAP256-VRC26.10 (antibody, V domains shown) VH: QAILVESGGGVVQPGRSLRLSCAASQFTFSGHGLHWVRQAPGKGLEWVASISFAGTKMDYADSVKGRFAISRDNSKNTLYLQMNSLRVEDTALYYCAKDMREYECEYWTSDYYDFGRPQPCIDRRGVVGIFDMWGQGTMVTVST VL: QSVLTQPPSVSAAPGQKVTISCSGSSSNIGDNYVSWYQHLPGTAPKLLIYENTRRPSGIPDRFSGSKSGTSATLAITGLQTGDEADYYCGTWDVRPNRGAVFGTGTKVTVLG
> 50 µg/mL

One more binder: CAP256-VRC26.11 (antibody, V domains shown) VH: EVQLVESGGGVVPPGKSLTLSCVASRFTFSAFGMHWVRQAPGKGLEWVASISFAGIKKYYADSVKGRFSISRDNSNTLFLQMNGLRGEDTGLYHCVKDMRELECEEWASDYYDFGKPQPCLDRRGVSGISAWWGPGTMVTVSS VL: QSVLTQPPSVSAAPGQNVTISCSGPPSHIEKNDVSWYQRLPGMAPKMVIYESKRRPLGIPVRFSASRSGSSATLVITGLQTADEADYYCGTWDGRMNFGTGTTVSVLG
> 50 µg/mL
